Assignment: determine reported clearance for the given compounds.
# PROTOCOL DETAILS: Population PK model (NONMEM) of plasma CBZ and 3 metabolites after oral CBZ
# EXPERIMENTAL SETUP: human, plasma, oral
One number for each entry, in mL/min.

[
  {
    "COMPOUND": "NC(=O)N1c2ccccc2C2OC2c2ccccc21 (stereo not drawn) [CBZE, carbamazepine 10,11‐epoxide]",
    "ENDPOINT": "clearance",
    "VALUE REPORTED": 162
  },
  {
    "COMPOUND": "NC(=O)N1c2ccccc2C=Cc2ccc(O)cc21 [3OH‐CBZ, 3‐hydroxycarbamazepine]",
    "ENDPOINT": "clearance",
    "VALUE REPORTED": 9050
  }
]

Tell me measured clearance for NC(=O)N1c2ccccc2C=Cc2cc(O)ccc21 [2OH‐CBZ, 2‐hydroxycarbamazepine] please.
12100
